Source listed as the MegaScale stability set (Tsuboyama et al. 2023).

B1: EEHEE_rd4_0647 (parent)
chain: MQVTWGNVTVTFSNPEEAKKYAEKVARKLGGQVELHNGQFRIK

Variants of: B1
Assay: folding stability dG (cDNA display proteolysis); higher = more stable
Conditions: PBS, room temperature
QUANTITY NAME: folding stability dG (kcal/mol)
Answer in kcal/mol, number only, no unit symbol.

{"columns": ["RESIDUE CODES", "UNIT ABBREVIATION", "READING"],
 "data": [
  ["MQVTWGNVTVTFANPEEAKKYAEKVARKLGGQVELHNGQFRIK [S13A]", "kcal/mol", 2.8],
  ["MQVTWGNVTVTFSNPESAKKYAEKVARKLGGQVELHNGQFRIK [E17S]", "kcal/mol", 2.73],
  ["MQVTWGNVTVTFSNPEEAKKYAEKVARKLGGQVELHQGQFRIK [N37Q]", "kcal/mol", 2.27],
  ["MQVTWGNVTVTFSNPEEAKKYAEKVARKLGGQVEFHNGQFRIK [L35F]", "kcal/mol", 3.15],
  ["MQVTWGNVTVTFSNPKEAKKYAEKVARKLGGQVELHNGQFRIK [E16K]", "kcal/mol", 2.52],
  ["MQVTWGNVTVTFSNPEEALKYAEKVARKLGGQVELHNGQFRIK [K19L]", "kcal/mol", 3.02],
  ["MQVTWGNVTVTFGNPEEAKKYAEKVARKLGGQVELHNGQFRIK [S13G]", "kcal/mol", 2.5],
  ["MQVTWGNVTVTFSNPEEAKKYAEKVARKLGGQVEHHNGQFRIK [L35H]", "kcal/mol", 2.1]
]}

From here, focus on the item given below.
Q. Fill blank: measured folding stability dG of the variant MQVTWGNVTVTFSNPEEAKKYAEKVARKLGGQMELHNGQFRIK [V33M] is ____.
A. 1.86
